experimental-target: dopa oxidase (Homo sapiens)
Sequence (P14679 19-529): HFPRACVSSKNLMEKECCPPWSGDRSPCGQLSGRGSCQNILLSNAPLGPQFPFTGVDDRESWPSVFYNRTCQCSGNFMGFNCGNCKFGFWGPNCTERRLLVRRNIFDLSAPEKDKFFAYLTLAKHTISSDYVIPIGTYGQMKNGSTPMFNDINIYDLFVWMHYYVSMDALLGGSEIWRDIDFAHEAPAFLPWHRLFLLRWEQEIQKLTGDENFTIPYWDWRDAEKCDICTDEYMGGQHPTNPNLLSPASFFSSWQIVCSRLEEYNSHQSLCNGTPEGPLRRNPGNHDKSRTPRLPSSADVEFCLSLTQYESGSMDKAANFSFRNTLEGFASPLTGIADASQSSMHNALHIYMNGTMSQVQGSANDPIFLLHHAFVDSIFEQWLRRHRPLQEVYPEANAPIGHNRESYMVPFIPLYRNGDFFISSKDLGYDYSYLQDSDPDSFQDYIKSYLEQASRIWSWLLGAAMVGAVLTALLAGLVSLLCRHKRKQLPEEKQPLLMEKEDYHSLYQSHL
protocol-text: Dopa oxidase activity in cultured melanocytes (MBTH method)
Type: cell-based
assay-conditions: evaluation concentration 1.0 μM; NHEMs, 3 days; relative to control; read-out: Dopa oxidase inhibitory rate (%)
Assignment: determine reported inhibition at 1 µM for the given molecules.
One number for each entry, in %.

> print(dat)
                                   molecule       property.name  unit.symbol  reading
1  COc1cc2c(OC(C)=O)c3c(c(-c4ccc5c(c4)OCO5)c2cc1OC)C(=O)OC3 [Compound 6]  inhibition at 1 µM            %       50
2  COc1cc2cc3c(c(-c4ccc5c(c4)OCO5)c2cc1OC)C(=O)OC3 [Compound 2, Justicidin B]  inhibition at 1 µM            %       50
3  COc1cc2c(O[C@H]3OCC(O)(CO)C3O)c3c(c(-c4ccc5c(c4)OCO5)c2cc1OC)C(=O)OC3 (stereo partly shown) [Compound 3, Tuberculatin]  inhibition at 1 µM            %       70

In: Provide the documented inhibition at 1 µM with dopa oxidase (Homo sapiens) as the system for COc1cc2c(O)c3c(c(-c4ccc5c(c4)OCO5)c2cc1OC)C(=O)OC3 [Compound 4, Diphyllin]
Out: 40

====

experimental-target: dopa oxidase (Homo sapiens)
protocol-text: Dopa oxidase activity in cultured melanocytes (MBTH method)
Assay type: cell-based
assay-conditions: evaluation concentration 0.1 μM; NHEMs, 3 days; relative to control; read-out: Dopa oxidase inhibitory rate (%)
Assignment: determine reported inhibition at 0.1 µM for the given compounds.
Give bare numbers, in %.

Known inhibition at 0.1 µM results, listed for orientation:
> print(dat)
                                   compound         property.name  reading
1  COc1cc2cc3c(c(-c4ccc5c(c4)OCO5)c2cc1OC)C(=O)OC3 [Compound 2, Justicidin B]  inhibition at 0.1 µM       10
2  CCOc1c2c(c(-c3ccc4c(c3)OCO4)c3cc(OC)c(OC)cc13)C(=O)OC2 [Compound 5]  inhibition at 0.1 µM       40
3  COc1c2c(c(-c3ccc4c(c3)OCO4)c3cc4c(cc13)OCO4)C(=O)OC2 [Compound 7, Justicidin F]  inhibition at 0.1 µM       20
4  COc1cc2c(OC)c3c(c(-c4ccc5c(c4)OCO5)c2cc1OC)C(=O)OC3 [Compound 1, Justicidin A]  inhibition at 0.1 µM       20

Now consider a different compound.
In: Data request, read-out inhibition at 0.1 µM, for COc1cc2c(O[C@H]3OCC(O)(CO)C3O)c3c(c(-c4ccc5c(c4)OCO5)c2cc1OC)C(=O)OC3 (some centres unmarked) [Compound 3, Tuberculatin]
Out: 45

====

experimental-target: dopa oxidase (Homo sapiens)
protocol-text: Dopa oxidase activity in cultured melanocytes (MBTH method)
Format: cell-based
assay-conditions: evaluation concentration 0.5 μM; NHEMs, 3 days; relative to control; read-out: Dopa oxidase inhibitory rate (%)
property-name: inhibition at 0.5 µM (%)
One number for each entry, in %.

> print(dat)
                                   compound  reading
1  COc1cc2c(OC(C)=O)c3c(c(-c4ccc5c(c4)OCO5)c2cc1OC)C(=O)OC3 [Compound 6]       40
2  COc1cc2c(O[C@H]3OCC(O)(CO)C3O)c3c(c(-c4ccc5c(c4)OCO5)c2cc1OC)C(=O)OC3 (stereo partly drawn) [Compound 3, Tuberculatin]       50
3  CCOc1c2c(c(-c3ccc4c(c3)OCO4)c3cc(OC)c(OC)cc13)C(=O)OC2 [Compound 5]       60
4  COc1cc2cc3c(c(-c4ccc5c(c4)OCO5)c2cc1OC)C(=O)OC3 [Compound 2, Justicidin B]       30
5  COc1cc2c(OC)c3c(c(-c4ccc5c(c4)OCO5)c2cc1OC)C(=O)OC3 [Compound 1, Justicidin A]       50

Now consider a different compound.
In: Data request, read-out inhibition at 0.5 µM, for COc1cc2c(O)c3c(c(-c4ccc5c(c4)OCO5)c2cc1OC)C(=O)OC3 [Compound 4, Diphyllin]
Out: 20
